measured target: Epidermal growth factor receptor (Homo sapiens)
Sequence (P00533 whole entry): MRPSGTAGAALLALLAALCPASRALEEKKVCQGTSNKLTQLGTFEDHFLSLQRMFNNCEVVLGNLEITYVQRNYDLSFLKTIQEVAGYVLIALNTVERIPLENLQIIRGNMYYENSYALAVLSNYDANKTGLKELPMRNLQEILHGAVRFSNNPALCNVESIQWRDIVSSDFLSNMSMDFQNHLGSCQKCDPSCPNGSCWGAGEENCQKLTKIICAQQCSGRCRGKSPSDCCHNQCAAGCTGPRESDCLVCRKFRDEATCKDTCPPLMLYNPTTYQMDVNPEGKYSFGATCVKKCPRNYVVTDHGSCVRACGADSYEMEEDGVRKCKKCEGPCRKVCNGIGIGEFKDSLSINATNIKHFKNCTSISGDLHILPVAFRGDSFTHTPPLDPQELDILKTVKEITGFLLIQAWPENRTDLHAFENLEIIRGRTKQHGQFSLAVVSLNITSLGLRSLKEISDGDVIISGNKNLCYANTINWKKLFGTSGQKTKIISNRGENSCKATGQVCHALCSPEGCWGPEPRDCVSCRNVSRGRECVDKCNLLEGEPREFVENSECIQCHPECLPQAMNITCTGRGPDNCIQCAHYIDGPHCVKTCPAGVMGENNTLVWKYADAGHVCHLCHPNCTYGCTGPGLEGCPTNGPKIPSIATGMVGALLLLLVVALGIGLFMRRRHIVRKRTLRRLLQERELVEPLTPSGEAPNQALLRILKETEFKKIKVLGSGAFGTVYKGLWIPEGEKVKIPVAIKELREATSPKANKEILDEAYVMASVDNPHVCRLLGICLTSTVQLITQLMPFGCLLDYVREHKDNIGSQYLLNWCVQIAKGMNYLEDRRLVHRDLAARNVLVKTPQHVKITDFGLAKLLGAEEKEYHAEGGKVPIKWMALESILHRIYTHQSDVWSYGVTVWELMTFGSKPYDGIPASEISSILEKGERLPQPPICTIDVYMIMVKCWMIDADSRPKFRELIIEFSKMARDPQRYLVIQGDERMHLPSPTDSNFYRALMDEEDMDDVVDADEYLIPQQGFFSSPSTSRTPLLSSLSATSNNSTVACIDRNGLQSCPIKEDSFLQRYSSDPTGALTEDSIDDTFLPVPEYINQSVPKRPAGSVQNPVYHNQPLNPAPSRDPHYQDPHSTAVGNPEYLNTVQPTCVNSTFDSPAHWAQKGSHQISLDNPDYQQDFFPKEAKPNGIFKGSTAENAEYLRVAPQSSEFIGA
pIC50: −log10 of the molar value.
readout label: pIC50

For orientation, consider the following solved cases.
compound	measured target	pIC50
OC(COc1ncnc2ccccc12)CN1CCN(Cc2ccccc2)CC1 (configuration not stated)	Epidermal growth factor receptor (Homo sapiens)	6.36
OC(COc1ncnc2ccccc12)CN1CCN(c2ccccc2F)CC1 (configuration not stated)	Epidermal growth factor receptor (Homo sapiens)	6.39
CN(C)CC(O)COc1ncnc2ccccc12 (configuration not stated)	Epidermal growth factor receptor (Homo sapiens)	6.34

P = O=[N+]([O-])c1ccc(N2CCN(CC(O)COc3ncnc4ccccc34)CC2)cc1 (configuration not stated)
Q = COc1cccc(N2CCN(CC(O)COc3ncnc4ccccc34)CC2)c1 (configuration not stated)
Ask | Select one: P or Q . Criterion: greater recorded pIC50. Your choice should be expressed through its label.
Reply | Q
(Q: 6.68, P: 6.42)

----------
pIC50: −log10 of the molar value.
Consider the following pIC50 values measured on Vascular endothelial growth factor receptor 2 (Homo sapiens, UniProt P35968).
Sequence (P35968 whole entry): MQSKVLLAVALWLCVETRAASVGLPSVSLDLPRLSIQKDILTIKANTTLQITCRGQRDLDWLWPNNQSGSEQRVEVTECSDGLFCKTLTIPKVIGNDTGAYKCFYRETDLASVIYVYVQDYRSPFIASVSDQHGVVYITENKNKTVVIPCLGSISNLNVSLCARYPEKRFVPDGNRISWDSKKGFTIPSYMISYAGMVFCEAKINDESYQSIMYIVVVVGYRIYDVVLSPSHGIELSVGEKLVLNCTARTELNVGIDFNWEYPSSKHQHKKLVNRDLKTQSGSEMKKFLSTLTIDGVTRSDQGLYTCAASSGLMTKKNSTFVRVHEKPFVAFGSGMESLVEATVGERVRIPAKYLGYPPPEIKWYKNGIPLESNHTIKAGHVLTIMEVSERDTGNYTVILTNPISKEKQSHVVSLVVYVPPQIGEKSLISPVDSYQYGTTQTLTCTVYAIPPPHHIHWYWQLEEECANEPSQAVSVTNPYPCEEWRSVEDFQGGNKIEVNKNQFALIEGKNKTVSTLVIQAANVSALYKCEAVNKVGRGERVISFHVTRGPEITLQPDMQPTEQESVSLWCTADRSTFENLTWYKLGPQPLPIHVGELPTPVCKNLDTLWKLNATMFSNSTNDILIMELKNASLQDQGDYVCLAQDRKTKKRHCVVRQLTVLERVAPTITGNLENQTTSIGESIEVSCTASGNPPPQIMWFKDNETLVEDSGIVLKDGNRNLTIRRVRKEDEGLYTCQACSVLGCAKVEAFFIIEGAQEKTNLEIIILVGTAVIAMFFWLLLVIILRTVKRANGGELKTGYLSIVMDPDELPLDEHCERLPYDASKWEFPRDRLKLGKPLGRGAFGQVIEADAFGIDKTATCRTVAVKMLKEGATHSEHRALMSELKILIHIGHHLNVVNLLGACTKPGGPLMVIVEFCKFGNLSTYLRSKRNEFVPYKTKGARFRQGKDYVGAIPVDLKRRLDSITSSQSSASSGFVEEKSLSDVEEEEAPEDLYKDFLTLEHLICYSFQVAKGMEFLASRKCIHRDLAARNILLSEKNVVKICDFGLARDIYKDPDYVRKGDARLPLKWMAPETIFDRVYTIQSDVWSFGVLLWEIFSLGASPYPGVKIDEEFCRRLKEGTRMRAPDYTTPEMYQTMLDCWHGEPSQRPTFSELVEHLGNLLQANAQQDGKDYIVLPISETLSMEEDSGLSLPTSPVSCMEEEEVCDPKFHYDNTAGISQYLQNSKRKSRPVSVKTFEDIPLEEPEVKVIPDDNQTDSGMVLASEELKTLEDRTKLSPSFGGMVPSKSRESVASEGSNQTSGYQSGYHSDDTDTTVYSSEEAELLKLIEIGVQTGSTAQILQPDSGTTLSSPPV
readout label: pIC50

For orientation, consider the following solved cases.
molecule	pIC50
OC(COc1ncnc2ccccc12)Cn1ccnc1 (stereo not drawn)	7.07
Cc1ccc(N2CCN(CC(O)COc3ncnc4ccccc34)CC2)c(C)c1 (stereo not drawn)	7.91
OC(COc1ncnc2ccccc12)CN1CCN(c2ccc(F)cc2)CC1 (stereo not drawn)	7.66
OC(COc1ncnc2ccccc12)CN1CCN(c2ccccc2)CC1 (stereo not drawn)	7.49

1 = OC(COc1ncnc2ccccc12)CN1CCN(c2ccccc2F)CC1 (stereo not drawn)
2 = COc1ccc(N2CCN(CC(O)COc3ncnc4ccccc34)CC2)cc1 (stereo not drawn)
3 = OC(COc1ncnc2ccccc12)CN1CCN(c2ccc(Cl)c(Cl)c2)CC1 (stereo not drawn)
4 = OC(COc1ncnc2ccccc12)CN1CCOCC1 (stereo not drawn)
Ask | Rank the 4 molecules: largest pIC50 first, smallest last. # output: labels, in the requested order
Reply | 2, 3, 1, 4

----------
Consider the following pIC50 values measured on Fibroblast growth factor 2 (Homo sapiens).
pIC50: −log10 of the molar value.
readout label: pIC50

For orientation, consider the following solved cases.
compound	measured target	recorded value
COc1ccc(N2CCN(CC(O)COc3ncnc4ccccc34)CC2)cc1 (centres undefined)	Fibroblast growth factor 2 (Homo sapiens)	6.91
CN1CCN(CC(O)COc2ncnc3ccccc23)CC1 (centres undefined)	Fibroblast growth factor 2 (Homo sapiens)	6.38
O=[N+]([O-])c1ccc(N2CCN(CC(O)COc3ncnc4ccccc34)CC2)cc1 (centres undefined)	Fibroblast growth factor 2 (Homo sapiens)	6.61
OC(COc1ncnc2ccccc12)CN1CCN(c2cccc(Cl)c2Cl)CC1 (centres undefined)	Fibroblast growth factor 2 (Homo sapiens)	6.40

A = COc1cc2nccc(Oc3ccc(NC(=O)Nc4cc(C)on4)c(Cl)c3)c2cc1OC
B = OC(COc1ncnc2ccccc12)CN1CCCCC1 (centres undefined)
C = OC(COc1ncnc2ccccc12)CN1CCN(c2ccc(F)cc2)CC1 (centres undefined)
Ask | Rank the 3 compounds: largest pIC50 first, smallest last. # output: labels, in the requested order
Reply | A, C, B
(A: 6.94, C: 6.52, B: 6.23)

Origin of values: BindingDB's records for doi:10.1111/cbdd.12596
